The reported numbers originate from paper PMC4696493.

# study-system: G-actin (Oryctolagus cuniculus, UniProt P68135)
# assay-method-text: Surface plasmon resonance, actin binding
# Set-up: species or system rabbit
No end group written: not given here.
parameter: pKd
Quick note: pKd means taking -log10 of the concentration in moles per liter.

Example substances with recorded pKd:
substance="KRIVQRIKDF-NH2 [KR-10]" parameter=pKd reported_value=4.55
substance="FKRIVQRIKDFLR-NH2 [FK-13]" parameter=pKd reported_value=4.73

Consider the record given below.
Request: For KRIVQRIKDFLR-NH2 [KR-12] , what is its reported pKd?
Response: 4.93
